Sourced from patent US4053635A

assay: hyperlipemia from diet (Table III)
Type: in vivo, Sprague-Dawley male rat
conditionLabel: hyperlipidic diet 4 weeks (diet alone 117.3±17.7); 200 mg/kg/day per os

{"columns": ["compound", "readingUnit", "Triglyceridemia ± ES"],
 "data": [
  ["C/C(=C\\c1ccccc1)CC(=O)O", "mg/100 ml", 91.5],
  ["C/C(=C\\c1ccccc1)CC(=O)NC1CCCCC1", "mg/100 ml", 81.5],
  ["CCN(CC)C(=O)C/C(C)=C/c1ccccc1", "mg/100 ml", 77.4],
  ["CCOC(=O)C(C)(C)Oc1ccc(Cl)cc1 [chlofibrate, reference compound]", "mg/100 ml", 60.0]
]}

====

assay: in vivo
conditionLabel: rat, po, read-out: LD 50 per os in the rat

{"columns": ["compound", "LD50, mg/kg"],
 "data": [
  ["C/C(=C\\c1ccccc1)CC(=O)N(CCO)CCO [IIIc]", 1500],
  ["C/C(=C\\c1ccccc1)CC(=O)N1CCOCC1 [IIIe]", 1000],
  ["C/C(=C\\c1ccccc1)CC(=O)NC1CCCCC1 [IIIb]", 3000]
]}

====

assay: hyperlipemia from diet (Table III)
Type: in vivo, Sprague-Dawley male rat
conditionLabel: hyperlipidic diet 4 weeks (diet alone 129.9±9.3); 200 mg/kg/day per os
# maps each entry to its Cholesterolemia ± SE
endpoint: Cholesterolemia ± SE (mg/100 ml)

{"columns": ["molecule", "readingUnit", "numericValue"],
 "data": [
  ["CCOC(=O)C(C)(C)Oc1ccc(Cl)cc1 [chlofibrate, reference compound]", "mg/100 ml", 138.8],
  ["C/C(=C\\c1ccccc1)CC(=O)NC1CCCCC1 [IIIb]", "mg/100 ml", 135.7],
  ["CCN(CC)C(=O)C/C(C)=C/c1ccccc1 [IIId]", "mg/100 ml", 124.9],
  ["C/C(=C\\c1ccccc1)CC(=O)O [I, 3-methyl-4-phenyl-3-butenoic acid]", "mg/100 ml", 142.4]
]}
